# measured-on: LAT1 (Homo sapiens)
# Sequence (Q01650 whole entry): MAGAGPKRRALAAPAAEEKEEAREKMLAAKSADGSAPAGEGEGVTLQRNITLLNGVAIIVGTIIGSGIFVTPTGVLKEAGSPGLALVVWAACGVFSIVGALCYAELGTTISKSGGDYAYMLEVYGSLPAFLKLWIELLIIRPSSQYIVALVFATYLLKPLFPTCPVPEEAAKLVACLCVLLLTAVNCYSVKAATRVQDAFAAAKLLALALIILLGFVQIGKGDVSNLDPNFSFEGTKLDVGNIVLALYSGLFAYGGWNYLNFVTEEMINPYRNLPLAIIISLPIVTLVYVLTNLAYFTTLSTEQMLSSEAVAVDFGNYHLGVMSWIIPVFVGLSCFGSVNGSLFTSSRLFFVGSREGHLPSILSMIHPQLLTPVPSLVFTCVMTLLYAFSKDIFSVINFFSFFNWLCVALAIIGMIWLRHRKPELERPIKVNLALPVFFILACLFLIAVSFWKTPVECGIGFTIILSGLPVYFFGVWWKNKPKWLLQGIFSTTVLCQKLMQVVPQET
# Sequence (P08195 102-630 partner): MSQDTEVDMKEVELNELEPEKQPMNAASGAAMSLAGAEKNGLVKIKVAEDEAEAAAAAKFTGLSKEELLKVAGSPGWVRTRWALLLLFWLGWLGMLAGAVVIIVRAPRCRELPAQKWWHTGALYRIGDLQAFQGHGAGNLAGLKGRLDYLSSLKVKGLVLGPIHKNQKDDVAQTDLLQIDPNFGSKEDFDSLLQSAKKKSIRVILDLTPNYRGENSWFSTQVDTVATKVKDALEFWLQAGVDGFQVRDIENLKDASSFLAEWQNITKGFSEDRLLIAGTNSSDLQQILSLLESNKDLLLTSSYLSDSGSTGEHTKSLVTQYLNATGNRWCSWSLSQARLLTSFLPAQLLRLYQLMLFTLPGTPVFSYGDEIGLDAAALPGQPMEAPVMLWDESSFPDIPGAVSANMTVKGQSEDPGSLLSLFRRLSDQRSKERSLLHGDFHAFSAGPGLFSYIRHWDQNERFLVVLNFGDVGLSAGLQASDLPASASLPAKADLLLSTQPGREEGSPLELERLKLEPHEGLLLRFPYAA
# measurement-description: LAT1 function: competitive uptake of L-dopa in SK-MEL-2 cells
# Format: cell-based
# condition-parameters: SK-MEL-2; L-dopa 0.1 mM, 10 min; competitor at the concentration printed in the row
Please respond with reported L-Dopa Distribution Volume in presence of the compound for every item in the list.
One number for each entry, in µL/mg Protein.

Worked cases, L-Dopa Distribution Volume in presence of the compound given:
N[C@@H](Cc1ccc(N(CCCl)CCCl)cc1)C(=O)O :: 196.6
C[C@H](N)C(=O)O :: 121.2
Oc1ccc2c(c1)OCO2 :: 207.6
CC(C)C[C@H](N)C(=O)O :: 94.1

// fetch L-Dopa Distribution Volume in presence of the compound given entry NC1(C(=O)O)CC2CCC1C2 (centres unmarked) 67.3
